Assay: Pharmacokinetic study of everolimus in mice bearing HT29 tumors (plasma and tumor, LC/MS/MS)
Assay type: in vivo
Settings: nude; 2.5 mg/kg daily oral for 7 days, Mouse, plasma; read-out: AUC0→t
Measurement type: AUC(0-t) (ng·h/mL)
State just the number; it will be interpreted in ng·h/mL.

Any idea what AUC(0-t) was measured for CO[C@H]1C[C@@H]2CC[C@@H](C)[C@@](O)(O2)C(=O)C(=O)N2CCCC[C@H]2C(=O)O[C@H]([C@H](C)C[C@@H]2CC[C@@H](OCCO)[C@H](OC)C2)CC(=O)[C@H](C)/C=C(\C)[C@@H](O)[C@@H](OC)C(=O)[C@H](C)C[C@H](C)/C=C/C=C/C=C/1C [Everolimus, 40-O-(2-hydroxyethyl)-rapamycin] ?
1920

----------
Test: Pharmacokinetic study of everolimus in mice bearing HT29 tumors (plasma and tumor, LC/MS/MS)
Assay type: in vivo
Details: nude; 2.5 mg/kg daily oral for 7 days, Mouse, plasma, steady-state
Measurement type: Cmax (ng/mL)
State just the number; it will be interpreted in ng/mL.

Any idea what Cmax was measured for CO[C@H]1C[C@@H]2CC[C@@H](C)[C@@](O)(O2)C(=O)C(=O)N2CCCC[C@H]2C(=O)O[C@H]([C@H](C)C[C@@H]2CC[C@@H](OCCO)[C@H](OC)C2)CC(=O)[C@H](C)/C=C(\C)[C@@H](O)[C@@H](OC)C(=O)[C@H](C)C[C@H](C)/C=C/C=C/C=C/1C [Everolimus, 40-O-(2-hydroxyethyl)-rapamycin] ?
350

----------
Assay: Pharmacokinetic study of everolimus in mice bearing HT29 tumors (plasma and tumor, LC/MS/MS)
Type: in vivo
Details: nude, mouse, po; plasma, 10 mg/kg, mice, non-compartmental analysis
Measurement type: Cmax (nM)
State just the number; it will be interpreted in nM.

Any idea what Cmax was measured for CO[C@H]1C[C@@H]2CC[C@@H](C)[C@@](O)(O2)C(=O)C(=O)N2CCCC[C@H]2C(=O)O[C@H]([C@H](C)C[C@@H]2CC[C@@H](OCCO)[C@H](OC)C2)CC(=O)[C@H](C)/C=C(\C)[C@@H](O)[C@@H](OC)C(=O)[C@H](C)C[C@H](C)/C=C/C=C/C=C/1C [Everolimus, 40-O-(2-hydroxyethyl)-rapamycin] ?
1760

----------
Assay: Pharmacokinetic study of everolimus in mice bearing HT29 tumors (plasma and tumor, LC/MS/MS)
Format: in vivo
Details: nude, mouse, po; plasma, 2.5 mg/kg, mice, non-compartmental analysis; read-out: AUC0→24
Measurement type: AUC(0-t) (µM·h)
State just the number; it will be interpreted in µM·h.

Any idea what AUC(0-t) was measured for CO[C@H]1C[C@@H]2CC[C@@H](C)[C@@](O)(O2)C(=O)C(=O)N2CCCC[C@H]2C(=O)O[C@H]([C@H](C)C[C@@H]2CC[C@@H](OCCO)[C@H](OC)C2)CC(=O)[C@H](C)/C=C(\C)[C@@H](O)[C@@H](OC)C(=O)[C@H](C)C[C@H](C)/C=C/C=C/C=C/1C [Everolimus, 40-O-(2-hydroxyethyl)-rapamycin] ?
2

----------
Test: Pharmacokinetic study of everolimus in mice bearing HT29 tumors (plasma and tumor, LC/MS/MS)
Format: in vivo
Settings: nude, mouse, po; HT29 tumor, 10 mg/kg, mice
Measurement type: Tmax (h)
State just the number; it will be interpreted in h.

Any idea what Tmax was measured for CO[C@H]1C[C@@H]2CC[C@@H](C)[C@@](O)(O2)C(=O)C(=O)N2CCCC[C@H]2C(=O)O[C@H]([C@H](C)C[C@@H]2CC[C@@H](OCCO)[C@H](OC)C2)CC(=O)[C@H](C)/C=C(\C)[C@@H](O)[C@@H](OC)C(=O)[C@H](C)C[C@H](C)/C=C/C=C/C=C/1C [Everolimus, 40-O-(2-hydroxyethyl)-rapamycin] ?
4

----------
Test: Pharmacokinetic study of everolimus in mice bearing HT29 tumors (plasma and tumor, LC/MS/MS)
Format: in vivo
Conditions: nude, mouse, po; plasma, 10 mg/kg, mice, non-compartmental analysis; read-out: Vz/F
Measurement type: Vd/F (L/kg)
State just the number; it will be interpreted in L/kg.

Any idea what Vd/F was measured for CO[C@H]1C[C@@H]2CC[C@@H](C)[C@@](O)(O2)C(=O)C(=O)N2CCCC[C@H]2C(=O)O[C@H]([C@H](C)C[C@@H]2CC[C@@H](OCCO)[C@H](OC)C2)CC(=O)[C@H](C)/C=C(\C)[C@@H](O)[C@@H](OC)C(=O)[C@H](C)C[C@H](C)/C=C/C=C/C=C/1C [Everolimus, 40-O-(2-hydroxyethyl)-rapamycin] ?
6

----------
Experiment: Pharmacokinetic study of everolimus in mice bearing HT29 tumors (plasma and tumor, LC/MS/MS)
Type: in vivo
Details: nude, mouse, po; plasma, 10 mg/kg, mice, non-compartmental analysis; read-out: CLss/F (converted)
Measurement type: CL/F (mL/min/kg)
State just the number; it will be interpreted in mL/min/kg.

Any idea what CL/F was measured for CO[C@H]1C[C@@H]2CC[C@@H](C)[C@@](O)(O2)C(=O)C(=O)N2CCCC[C@H]2C(=O)O[C@H]([C@H](C)C[C@@H]2CC[C@@H](OCCO)[C@H](OC)C2)CC(=O)[C@H](C)/C=C(\C)[C@@H](O)[C@@H](OC)C(=O)[C@H](C)C[C@H](C)/C=C/C=C/C=C/1C [Everolimus, 40-O-(2-hydroxyethyl)-rapamycin] ?
13.8

----------
Assay: Pharmacokinetic study of everolimus in mice bearing HT29 tumors (plasma and tumor, LC/MS/MS)
Type: in vivo
Conditions: nude, mouse, po; plasma, 10 mg/kg, mice, non-compartmental analysis; read-out: AUC0→24
Measurement type: AUC(0-t) (µM·h)
State just the number; it will be interpreted in µM·h.

Any idea what AUC(0-t) was measured for CO[C@H]1C[C@@H]2CC[C@@H](C)[C@@](O)(O2)C(=O)C(=O)N2CCCC[C@H]2C(=O)O[C@H]([C@H](C)C[C@@H]2CC[C@@H](OCCO)[C@H](OC)C2)CC(=O)[C@H](C)/C=C(\C)[C@@H](O)[C@@H](OC)C(=O)[C@H](C)C[C@H](C)/C=C/C=C/C=C/1C [Everolimus, 40-O-(2-hydroxyethyl)-rapamycin] ?
12.1

----------
Assay: Pharmacokinetic study of everolimus in mice bearing HT29 tumors (plasma and tumor, LC/MS/MS)
Format: in vivo
Settings: nude, mouse, po; HT29 tumor, 2.5 mg/kg, mice
Measurement type: Cmax (nM)
State just the number; it will be interpreted in nM.

Any idea what Cmax was measured for CO[C@H]1C[C@@H]2CC[C@@H](C)[C@@](O)(O2)C(=O)C(=O)N2CCCC[C@H]2C(=O)O[C@H]([C@H](C)C[C@@H]2CC[C@@H](OCCO)[C@H](OC)C2)CC(=O)[C@H](C)/C=C(\C)[C@@H](O)[C@@H](OC)C(=O)[C@H](C)C[C@H](C)/C=C/C=C/C=C/1C [Everolimus, 40-O-(2-hydroxyethyl)-rapamycin] ?
52

----------
Assay: Pharmacokinetic study of everolimus in mice bearing HT29 tumors (plasma and tumor, LC/MS/MS)
Format: in vivo
Details: nude; 10 mg/kg daily oral for 7 days, Mouse, plasma; read-out: AUC0→t
Measurement type: AUC(0-t)

Any idea what AUC(0-t) was measured for CO[C@H]1C[C@@H]2CC[C@@H](C)[C@@](O)(O2)C(=O)C(=O)N2CCCC[C@H]2C(=O)O[C@H]([C@H](C)C[C@@H]2CC[C@@H](OCCO)[C@H](OC)C2)CC(=O)[C@H](C)/C=C(\C)[C@@H](O)[C@@H](OC)C(=O)[C@H](C)C[C@H](C)/C=C/C=C/C=C/1C [Everolimus, 40-O-(2-hydroxyethyl)-rapamycin] ?
11600 ng·h/mL

----------
Experiment: Pharmacokinetic study of everolimus in mice bearing HT29 tumors (plasma and tumor, LC/MS/MS)
Type: in vivo
Conditions: nude, mouse, po; HT29 tumor, 2.5 mg/kg, mice
Measurement type: Tmax (min)
State just the number; it will be interpreted in min.

Any idea what Tmax was measured for CO[C@H]1C[C@@H]2CC[C@@H](C)[C@@](O)(O2)C(=O)C(=O)N2CCCC[C@H]2C(=O)O[C@H]([C@H](C)C[C@@H]2CC[C@@H](OCCO)[C@H](OC)C2)CC(=O)[C@H](C)/C=C(\C)[C@@H](O)[C@@H](OC)C(=O)[C@H](C)C[C@H](C)/C=C/C=C/C=C/1C [Everolimus, 40-O-(2-hydroxyethyl)-rapamycin] ?
30

----------
Experiment: Pharmacokinetic study of everolimus in mice bearing HT29 tumors (plasma and tumor, LC/MS/MS)
Format: in vivo
Settings: nude, mouse, po; plasma, 2.5 mg/kg, mice, non-compartmental analysis
Measurement type: Tmax (min)
State just the number; it will be interpreted in min.

Any idea what Tmax was measured for CO[C@H]1C[C@@H]2CC[C@@H](C)[C@@](O)(O2)C(=O)C(=O)N2CCCC[C@H]2C(=O)O[C@H]([C@H](C)C[C@@H]2CC[C@@H](OCCO)[C@H](OC)C2)CC(=O)[C@H](C)/C=C(\C)[C@@H](O)[C@@H](OC)C(=O)[C@H](C)C[C@H](C)/C=C/C=C/C=C/1C [Everolimus, 40-O-(2-hydroxyethyl)-rapamycin] ?
30
